Assay name: Biodistribution of radiotracers in normal mice
Type: in vivo, mouse
Assay context: normal male mice, 2 min
Here the recorded Biodistribution: Lung is given for each entry.
Observable: Biodistribution: Lung (% dose/g)

{"Compound": "O=C(O)CCc1ccc2c(n1)C[N+]13CC[N+]45CC(=O)[O][68Ga-3]14([O]C(=O)C3)([O]2)[O]c1ccc(CCC(=O)NCCCCCC(=O)NCCCC[C@H](NC(=O)N[C@@H](CCC(=O)O)C(=O)O)C(=O)O)nc1C5 (stereo partly shown) [[^68Ga]2]", "Observable": "Biodistribution: Lung", "Numeric readout": 5.18}
{"Compound": "O=C(O)CC[C@H](NC(=O)N[C@@H](CCCCNC(=O)CCCCCNC(=O)CCc1ccc2c(c1)C[N+]13CC[N+]45CC(=O)[O][68Ga-3]14([O]C(=O)C3)([O]2)[O]c1ccc(CCC(=O)N[C@@H](CC(=O)O)C(=O)O)cc1C5)C(=O)O)C(=O)O (stereo partly shown) [[^68Ga]1e]", "Observable": "Biodistribution: Lung", "Numeric readout": 5.08}
{"Compound": "O=C(O)CC[C@H](NC(=O)CCc1ccc2c(c1)C[N+]13CC[N+]45CC(=O)[O][68Ga-3]41([O]C(=O)C3)([O]c1ccc(CCC(=O)NCCCCCC(=O)NCCCC[C@H](NC(=O)N[C@@H](CCC(=O)O)C(=O)O)C(=O)O)cc1C5)[O]2)C(=O)O (stereo partly shown) [[^68Ga]1f]", "Observable": "Biodistribution: Lung", "Numeric readout": 5.07}
{"Compound": "O=C(O)CCc1ccc(O)c(CN(CCN(CC(=O)O)Cc2cc(CCC(=O)NCCCCCC(=O)NCCCC[C@H](NC(=O)N[C@@H](CCC(=O)O)C(=O)O)C(=O)O)ccc2O)CC(=O)O)n1 [[^68Ga]4a, metal not drawn]", "Observable": "Biodistribution: Lung", "Numeric readout": 5.45}

---

Study target: PSMA (Homo sapiens, UniProt Q04609)
Construct: 100 μL of freshly harvested PSMA cells; endogenous in cells; host or cells: 'PSMA cells' in the method
Sequence (Q04609 whole entry): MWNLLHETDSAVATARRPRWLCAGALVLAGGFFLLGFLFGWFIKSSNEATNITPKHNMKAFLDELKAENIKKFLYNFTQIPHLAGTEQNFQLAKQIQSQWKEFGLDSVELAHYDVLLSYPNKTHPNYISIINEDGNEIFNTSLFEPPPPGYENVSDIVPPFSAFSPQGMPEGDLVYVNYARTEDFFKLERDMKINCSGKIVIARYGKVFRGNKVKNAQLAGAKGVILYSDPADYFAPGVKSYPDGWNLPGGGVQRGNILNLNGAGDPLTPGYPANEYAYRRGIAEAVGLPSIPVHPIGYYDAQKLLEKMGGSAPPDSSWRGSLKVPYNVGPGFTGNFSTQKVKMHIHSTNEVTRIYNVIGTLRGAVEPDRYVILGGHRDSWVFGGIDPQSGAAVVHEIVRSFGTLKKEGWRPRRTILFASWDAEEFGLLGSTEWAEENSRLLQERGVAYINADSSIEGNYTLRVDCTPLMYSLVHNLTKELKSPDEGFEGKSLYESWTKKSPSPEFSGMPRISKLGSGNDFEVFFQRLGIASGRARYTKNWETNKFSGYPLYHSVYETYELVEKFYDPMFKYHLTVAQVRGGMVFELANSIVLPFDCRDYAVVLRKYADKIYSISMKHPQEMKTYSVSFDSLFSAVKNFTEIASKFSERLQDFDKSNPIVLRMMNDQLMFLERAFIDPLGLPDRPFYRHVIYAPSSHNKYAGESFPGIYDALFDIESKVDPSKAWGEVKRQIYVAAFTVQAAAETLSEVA
Assay name: In vitro binding signals of 68Ga labeled ligands in LNCaP tumor homogenates
Assay context: Ga-68 radiolabeled ligands
# cutoff 10 applies to Specific binding (SB) SB = TB − NSB; >= gives 1, < gives -1

{"Molecule": "O=C(O)CC[C@H](NC(=O)N[C@@H](CCCCNC(=O)CCCCCNC(=O)CCc1ccc(O)c(CN(CCN(CC(=O)O)Cc2cc(CCC(=O)NCC(=O)O)ccc2O)CC(=O)O)c1)C(=O)O)C(=O)O", "Class": 1}
{"Molecule": "O=C(O)CCc1ccc(O)c(CN(CCN(CC(=O)O)Cc2cc(CCC(=O)NCCCCCC(=O)NCCCC[C@H](NC(=O)N[C@@H](CCC(=O)O)C(=O)O)C(=O)O)ccc2O)CC(=O)O)c1 [Compound 1a, Glu-NH—CO—NH-Lys(Ahx)-HBED-CC, reference compound]", "Class": 1}
{"Molecule": "O=C(O)CCc1ccc(O)c(CN(CCN(CC(=O)O)Cc2cc(CCC(=O)NCCCCCC(=O)NCCCC[C@H](NC(=O)N[C@@H](CCC(=O)O)C(=O)O)C(=O)O)ccc2O)CC(=O)O)n1", "Class": 1}
{"Molecule": "O=C(O)CC[C@H](NC(=O)CCc1ccc(O)c(CN(CCN(CC(=O)O)Cc2cc(CCC(=O)NCCCCCC(=O)NCCCC[C@H](NC(=O)N[C@@H](CCC(=O)O)C(=O)O)C(=O)O)ccc2O)CC(=O)O)c1)C(=O)O", "Class": 1}
{"Molecule": "O=C(O)CCc1ccc(O)c(CN(CCN(CC(=O)O)Cc2nc(CCC(=O)NCCCCCC(=O)NCCCC[C@H](NC(=O)N[C@@H](CCC(=O)O)C(=O)O)C(=O)O)ccc2O)CC(=O)O)n1", "Class": -1}
{"Molecule": "C[C@H](NC(=O)CCc1ccc(O)c(CN(CCN(CC(=O)O)Cc2cc(CCC(=O)NCCCCCC(=O)NCCCC[C@H](NC(=O)N[C@@H](CCC(=O)O)C(=O)O)C(=O)O)ccc2O)CC(=O)O)c1)C(=O)O", "Class": 1}
{"Molecule": "O=C(O)CC[C@H](NC(=O)N[C@@H](CCCCNC(=O)CCCCCNC(=O)CCc1ccc(O)c(CN(CCN(CC(=O)O)Cc2cc(CCC(=O)NCCNC(=O)CN3CCN(CC(=O)O)CCN(CC(=O)O)CCN(CC(=O)O)CC3)ccc2O)CC(=O)O)c1)C(=O)O)C(=O)O", "Class": -1}
{"Molecule": "O=C(O)CC[C@H](NC(=O)N[C@@H](CCCCNC(=O)CCCCCNC(=O)CCc1ccc(O)c(CN(CCN(CC(=O)O)Cc2nc(CCC(=O)NCCCCCC(=O)NCCCC[C@H](NC(=O)N[C@@H](CCC(=O)O)C(=O)O)C(=O)O)ccc2O)CC(=O)O)n1)C(=O)O)C(=O)O", "Class": -1}
{"Molecule": "O=C(O)CCc1ccc(O)c(CN(CCN(CC(=O)O)Cc2nc(CCC(=O)NCCCCCC(=O)NCCCC[C@H](NC(=O)N[C@@H](CCC(=O)O)C(=O)O)C(=O)O)ccc2O)CC(=O)O)c1", "Class": -1}

---

Assay name: Biodistribution of radiotracers in normal mice
Format: in vivo, mouse
Assay context: normal male mice, 2 min
Observable: Biodistribution: Muscle (% dose/g)

{"Molecule": "O=C(O)CCc1ccc(O)c(CN(CCN(CC(=O)O)Cc2cc(CCC(=O)NCCCCCC(=O)NCCCC[C@H](NC(=O)N[C@@H](CCC(=O)O)C(=O)O)C(=O)O)ccc2O)CC(=O)O)n1 [[^68Ga]4a, metal not drawn]", "Observable": "Biodistribution: Muscle", "Result unit": "% dose/g", "Numeric readout": 2.68}
{"Molecule": "O=C(O)CC[C@H](NC(=O)N[C@@H](CCCCNC(=O)CCCCCNC(=O)CCc1ccc2c(c1)C[N+]13CC[N+]45CC(=O)[O][68Ga-3]14([O]C(=O)C3)([O]2)[O]c1ccc(CCC(=O)NCC(=O)O)cc1C5)C(=O)O)C(=O)O (stereo partly drawn) [[^68Ga]1c]", "Observable": "Biodistribution: Muscle", "Result unit": "% dose/g", "Numeric readout": 2.16}
{"Molecule": "O=C(O)CCc1ccc2c(n1)C[N+]13CC[N+]45CC(=O)[O][68Ga-3]14([O]C(=O)C3)([O]2)[O]c1ccc(CCC(=O)NCCCCCC(=O)NCCCC[C@H](NC(=O)N[C@@H](CCC(=O)O)C(=O)O)C(=O)O)nc1C5 (stereo partly drawn) [[^68Ga]2]", "Observable": "Biodistribution: Muscle", "Result unit": "% dose/g", "Numeric readout": 2.00}

---

Assay name: Biodistribution of radiotracers in normal mice
Format: in vivo, mouse
Assay context: normal male mice, 2 min
Observable: Biodistribution: Liver (% dose/g)

{"Compound": "O=C(O)CCc1ccc(O)c(CN(CCN(CC(=O)O)Cc2cc(CCC(=O)NCCCCCC(=O)NCCCC[C@H](NC(=O)N[C@@H](CCC(=O)O)C(=O)O)C(=O)O)ccc2O)CC(=O)O)n1 [[^68Ga]4a, metal not drawn]", "Numeric readout": 2.22}
{"Compound": "O=C(O)CCc1ccc2c(n1)C[N+]13CC[N+]45CC(=O)[O][68Ga-3]14([O]C(=O)C3)([O]2)[O]c1ccc(CCC(=O)NCCCCCC(=O)NCCCC[C@H](NC(=O)N[C@@H](CCC(=O)O)C(=O)O)C(=O)O)nc1C5 (stereo partly shown) [[^68Ga]2]", "Numeric readout": 2.01}
{"Compound": "O=C(O)CC[C@H](NC(=O)N[C@@H](CCCCNC(=O)CCCCCNC(=O)CCc1ccc2c(n1)C[N+]13CC[N+]45CC(=O)[O][68Ga-3]14([O]C(=O)C3)([O]2)[O]c1ccc(CCC(=O)NCCCCCC(=O)NCCCC[C@H](NC(=O)N[C@@H](CCC(=O)O)C(=O)O)C(=O)O)nc1C5)C(=O)O)C(=O)O (stereo partly shown) [[^68Ga]3]", "Numeric readout": 3.42}
{"Compound": "O=C(O)CC[C@H](NC(=O)CCc1ccc2c(c1)C[N+]13CC[N+]45CC(=O)[O][68Ga-3]41([O]C(=O)C3)([O]c1ccc(CCC(=O)NCCCCCC(=O)NCCCC[C@H](NC(=O)N[C@@H](CCC(=O)O)C(=O)O)C(=O)O)cc1C5)[O]2)C(=O)O (stereo partly shown) [[^68Ga]1f]", "Numeric readout": 2.43}

---

Study target: PSMA (Homo sapiens)
Construct: 100 μL of freshly harvested PSMA cells; endogenous in cells
Assay name: In vitro competitive binding assay to determine IC50 to PSMA
Assay context: LNCaP cells, [125I]MIP-1095 radioligand, 37° C. 1 h, mean±SD (n=4); read-out: PSMA binding affinities of cold ligands, IC50

{"Compound": "O=C(O)CC[C@H](NC(=O)CCc1ccc(O)c(CN(CCN(CC(=O)O)Cc2cc(CCC(=O)NCCCCCC(=O)NCCCC[C@H](NC(=O)N[C@@H](CCC(=O)O)C(=O)O)C(=O)O)ccc2O)CC(=O)O)c1)C(=O)O", "IC50": "0.0372 µM"}
{"Compound": "O=C(O)CC[C@H](NC(=O)N[C@@H](CCCCNC(=O)[C@H](Cc1ccccc1)NC(=O)COc1ccc(C[C@H](NC(=O)CNC(=O)c2ccccc2I)C(=O)O)cc1)C(=O)O)C(=O)O", "IC50": "0.0053 µM"}
{"Compound": "O=C(O)CCc1ccc(O)c(CN(CCN(CC(=O)O)Cc2nc(CCC(=O)NCCCCCC(=O)NCCCC[C@H](NC(=O)N[C@@H](CCC(=O)O)C(=O)O)C(=O)O)ccc2O)CC(=O)O)n1", "IC50": "0.0404 µM"}
{"Compound": "C[C@H](NC(=O)CCc1ccc(O)c(CN(CCN(CC(=O)O)Cc2cc(CCC(=O)NCCCCCC(=O)NCCCC[C@H](NC(=O)N[C@@H](CCC(=O)O)C(=O)O)C(=O)O)ccc2O)CC(=O)O)c1)C(=O)O", "IC50": "0.0268 µM"}
{"Compound": "O=C(O)CC[C@H](NC(=O)N[C@@H](CCCCNC(=O)CCCCCNC(=O)CCc1ccc(O)c(CN(CCN(CC(=O)O)Cc2nc(CCC(=O)NCCCCCC(=O)NCCCC[C@H](NC(=O)N[C@@H](CCC(=O)O)C(=O)O)C(=O)O)ccc2O)CC(=O)O)n1)C(=O)O)C(=O)O", "IC50": "0.132 µM"}
{"Compound": "O=C(O)CC[C@H](NC(=O)N[C@@H](CCCCNC(=O)CCCCCNC(=O)CCc1ccc(O)c(CN(CCN(CC(=O)O)Cc2cc(CCC(=O)NCC(=O)O)ccc2O)CC(=O)O)c1)C(=O)O)C(=O)O", "IC50": "0.0256 µM"}
{"Compound": "O=C(O)CCc1ccc(O)c(CN(CCN(CC(=O)O)Cc2cc(CCC(=O)NCCCCCC(=O)NCCCC[C@H](NC(=O)N[C@@H](CCC(=O)O)C(=O)O)C(=O)O)ccc2O)CC(=O)O)c1 [Compound 1a, Glu-NH—CO—NH-Lys(Ahx)-HBED-CC, reference compound]", "IC50": "0.0166 µM"}
{"Compound": "O=C(O)CCc1ccc2c(c1)C[N+]13CC[N+]45CC(=O)[O][Ga-3]14([O]C(=O)C3)([O]2)[O]c1ccc(CCC(=O)NCC(=O)N[C@@H](Cc2ccc(OCC(=O)N[C@@H](Cc3ccccc3)C(=O)NCCCC[C@H](NC(=O)N[C@@H](CCC(=O)O)C(=O)O)C(=O)O)cc2)C(=O)O)cc1C5 (some centres unmarked) [[^natGa]5b]", "IC50": "0.0165 µM"}
